The measured values listed here are drawn from patent US4211866A.

Experiment Summary: Acute toxicities in mice
Assay type: in vivo
Test Settings: mouse, in vivo, ip; mice (male, ddy), intraperitoneal single dose, 7 days survival
Description: Acute toxicities in mice (male, ddy). *Intraperitoneal administration of a single dose, 7 days survival.
Value Type: LD50 at 168 h

Molecule	Value Type	Observed Measurement
O=NN(CCCl)C(=O)N[C@H]1C(O)O[C@H](CO)[C@@H](O)[C@@H]1O (stereo partly shown) [Chlorozotocin, reference compound]	LD50 at 168 h	45 to 47 mg/kg
